Test: Cytotoxicity against mouse RAW264.7 cells assessed as cell survival rate up to 25 uM after 18 hrs by MTT assay relative to control
Type: cell-based
Conditions: read-out: Survival
reportedProperty: viability at 18 h (%)
The reply should be a number in %, with the unit left off.

Sample CC1=C2C(C[C@@H]1OC(=O)c1ccncc1)[C@](C)(O)CC[C@H]1[C@H](C)C(=O)O[C@H]21 (some centres undefined) ; viability at 18 h observed: 100

Lab note: CCCOc1ccc(/C=C/C(=O)O[C@H]2CC3C(=C2C)[C@H]2OC(=O)[C@@H](C)[C@@H]2CC[C@@]3(C)O)cc1 (some centres undefined) gave viability at 18 h of 43.1

The compound listed as CC1=C2C(C[C@@H]1OC(=O)c1ccc(C(F)(F)F)cc1)[C@](C)(O)CC[C@H]1[C@H](C)C(=O)O[C@H]21 (some centres undefined) shows viability at 18 h equal to 100

Query CC1=C2C(C[C@@H]1O)[C@](C)(O)CC[C@H]1[C@H](C)C(=O)O[C@H]21 (some centres undefined) yields viability at 18 h of 100

Sample CC1=C2C(C[C@@H]1OC(=O)c1cccc3ccccc13)[C@](C)(O)CC[C@H]1[C@H](C)C(=O)O[C@H]21 (some centres undefined) ; viability at 18 h observed: 67.4

So, CCCCc1ccc(C(=O)O[C@H]2CC3C(=C2C)[C@H]2OC(=O)[C@@H](C)[C@@H]2CC[C@@]3(C)O)cc1 (some centres undefined) ? Its viability at 18 h was 72.6

Measured viability at 18 h, CC1=C2C(C[C@@H]1OC(=O)/C=C/c1ccc([N+](=O)[O-])cc1)[C@](C)(O)CC[C@H]1[C@H](C)C(=O)O[C@H]21 (some centres undefined) : 92.5

Short answer for CC1=C2C(C[C@@H]1OC(=O)/C=C/c1ccc(C)cc1)[C@](C)(O)CC[C@H]1[C@H](C)C(=O)O[C@H]21 (some centres undefined) : viability at 18 h was 100

Given item CC1=C2C(C[C@@H]1OC(=O)c1ccccn1)[C@](C)(O)CC[C@H]1[C@H](C)C(=O)O[C@H]21 (some centres undefined) , the value recorded as its viability at 18 h is 100

// recorded viability at 18 h for CC1=C2C(C[C@@H]1OC(=O)/C=C/c1ccc(C#N)cc1)[C@](C)(O)CC[C@H]1[C@H](C)C(=O)O[C@H]21 (some centres undefined) : 100

// CC1=C2C(C[C@@H]1OC(=O)c1ccc3ncccc3c1)[C@](C)(O)CC[C@H]1[C@H](C)C(=O)O[C@H]21 (some centres undefined) : viability at 18 h value = 100

Noted for CC1=C2C(CC1=O)[C@](C)(O)CC[C@H]1[C@H](C)C(=O)O[C@H]21 (some centres undefined) : its viability at 18 h reads 100

For CC1=C2C(C[C@@H]1OC(=O)c1cccs1)[C@](C)(O)CC[C@H]1[C@H](C)C(=O)O[C@H]21 (some centres undefined) the compound record lists viability at 18 h as 100

Notebook: CC1=C2C(C[C@@H]1OC(=O)c1ccco1)[C@](C)(O)CC[C@H]1[C@H](C)C(=O)O[C@H]21 (some centres undefined) , viability at 18 h read as 100
